Assay: chemical genetic growth profiling, strain panel (AID 1159580);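 note: tested at 20 µM; growth read once vehicle control cultures reached saturation at 30 °C; 1 = growth at the plate median or of vehicle wells; lower values mean less growth of the strain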
Details: S. cerevisiae deletion strains, growth OD, locus YBR279W, strain paf1
Among all 5,500 compounds or so, about 2,000 (36%) were called active. Roughly 18% stayed inconclusive and do not appear here. Cut-off read from the data, not from the text of the source: active = normalized growth mostly below about 0.91 (no sharp cut-off); inconclusive = no clear call, values can overlap the other calls; inactive = mostly above about 0.92. The list shows a part of the results.
// classify into Y = active, N = inactive

Solved entries:
Record lookup: outcome of this test for COC(=O)C(O)c1ccccc1 (centres undefined) ? N

And for CCC(C)C(=O)O[C@H]1C[C@H](O)C=C2C=C[C@H](C)[C@H](CC[C@@H](O)C[C@@H](O)CC(=O)O)C21 (some centres undefined) ? N

And for CCC(C)(C)C(=O)O[C@H]1C[C@@H](C)C=C2C=C[C@H](C)[C@H](CC[C@@H]3C[C@@H](O)CC(=O)O3)[C@H]21 ? Y

---
Record lookup: outcome of this test for CC[C@H](C)C(=O)O[C@H]1C[C@@H](C)C=C2C=C[C@H](C)[C@H](CC[C@@H]3C[C@@H](O)CC(=O)O3)[C@H]21 ? N

----------
Experiment: chemical genetic growth profiling, strain panel (AID 1159580);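 note: tested at 20 µM; growth read once vehicle control cultures reached saturation at 30 °C; 1 = growth at the plate median or of vehicle wells; lower values mean less growth of the strain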
Settings: S. cerevisiae deletion strains, growth OD, locus YBR229C, strain ROT2, active compounds read low
Hit rate of the full screen: of about 5,500 compounds, about 2,000 (36%) were called active. About 18% were inconclusive and are not listed. The list shows a part of the results.
Examples of compounds with documented normalized growth follow.
Please reply with the value in numeric form only.

Please review the entries below; each comes with its answer.
If you can, please state the reported normalized growth value of CC(C)NNC(=O)c1ccncc1 . 1

And for COCCCNC(=S)Nc1ccc(C)cc1C ? 0.974

And for Cc1ccc(NC(=S)NCCO)c(C)c1 ? 0.987

And for N#CC(C#N)=Cc1ccc(-c2cc(C(F)(F)F)ccc2Cl)o1 ? 1.01

And for CCN(CC)CCNC(=O)c1c(-c2c(Cl)cccc2Cl)noc1C ? 1.01

And for Cc1ccc(-n2cccc2)c(NC(=S)Nc2ccc(Br)cc2OC(F)(F)F)c1 ? 1

# context switch: different compound, same normalized growth
If you can, please state the reported normalized growth value of Cc1cc(NC(=O)c2c(-c3c(Cl)cccc3Cl)noc2C)c([N+](=O)[O-])cc1C . 1.01

----------
Experiment: chemical genetic growth profiling, strain panel (AID 1159580);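 note: tested at 20 µM; growth read once vehicle control cultures reached saturation at 30 °C; 1 = growth at the plate median or of vehicle wells; lower values mean less growth of the strain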
Conditions: S. cerevisiae deletion strains, growth OD, locus YCL029C, strain bik1, active compounds read low
Screen size: about 5,500 compounds; about 2,000 (36%) were called active. Not shown: some 18% with an inconclusive outcome. The list shows a part of the results.
OUTCOME MEASURE: normalized growth
Please reply with the value in numeric form only.

Please review the entries below; each comes with its answer.
If you can, please state the reported normalized growth value of C=CCSCC1Nc2cc(Cl)c(S(N)(=O)=O)cc2S(=O)(=O)N1 (stereo unspecified) . 1.02

And for COc1cc2c(cc1OC)C1Cc3ccc(OC)c(OC)c3CN1CC2 (stereo unspecified) ? 0.998

# context switch: different compound, same normalized growth
If you can, please state the reported normalized growth value of CC(=O)OC1CCC2(C)C(=CC=C3C2CCC2(C)C3CCC2C(C)/C=C/C(C)C(C)C)C1(C)C (stereo unspecified) . 1.01

----------
Experiment: chemical genetic growth profiling, strain panel (AID 1159580);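 note: tested at 20 µM; growth read once vehicle control cultures reached saturation at 30 °C; 1 = growth at the plate median or of vehicle wells; lower values mean less growth of the strain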
Settings: S. cerevisiae deletion strains, growth OD, locus YMR125W, strain sto1
Out of some 5,500 compounds screened, about 2,000 (36%) were called active. About 18% were inconclusive and are not listed. Rule as the data show it: active = normalized growth mostly below about 0.91 (no sharp cut-off); inconclusive = no clear call, values can overlap the other calls; inactive = mostly above about 0.92. Some of the results follow.
// classify into active, inactive

Solved entries:
Record lookup: outcome of this test for O=C(O)CN(CC(=O)O)Cc1cc2c(-c3ccccc3C(=O)O)c3cc(CN(CC(=O)O)CC(=O)O)c(=O)cc-3oc2cc1O ? inactive

And for O=c1cc(-c2ccccc2O)oc2cc(O)ccc12 ? inactive

And for CCCCNc1ccc(C(=O)OCCN(C)C)cc1 ? inactive

And for O=C1OC(c2ccc(O)cc2)(c2ccc(O)cc2)c2ccccc21 ? inactive

---
Record lookup: outcome of this test for CCCCOC(=O)c1ccc(N)cc1 ? active

And for CCCCOC(=O)c1ccccc1C(=O)OCCCC ? inactive
